Cited source for all entries: patent US8383608B2

Molecular target: human androgen receptor (hAR) (Homo sapiens)
Construct: expressed in transfected cells
Sequence (P10275 1-920): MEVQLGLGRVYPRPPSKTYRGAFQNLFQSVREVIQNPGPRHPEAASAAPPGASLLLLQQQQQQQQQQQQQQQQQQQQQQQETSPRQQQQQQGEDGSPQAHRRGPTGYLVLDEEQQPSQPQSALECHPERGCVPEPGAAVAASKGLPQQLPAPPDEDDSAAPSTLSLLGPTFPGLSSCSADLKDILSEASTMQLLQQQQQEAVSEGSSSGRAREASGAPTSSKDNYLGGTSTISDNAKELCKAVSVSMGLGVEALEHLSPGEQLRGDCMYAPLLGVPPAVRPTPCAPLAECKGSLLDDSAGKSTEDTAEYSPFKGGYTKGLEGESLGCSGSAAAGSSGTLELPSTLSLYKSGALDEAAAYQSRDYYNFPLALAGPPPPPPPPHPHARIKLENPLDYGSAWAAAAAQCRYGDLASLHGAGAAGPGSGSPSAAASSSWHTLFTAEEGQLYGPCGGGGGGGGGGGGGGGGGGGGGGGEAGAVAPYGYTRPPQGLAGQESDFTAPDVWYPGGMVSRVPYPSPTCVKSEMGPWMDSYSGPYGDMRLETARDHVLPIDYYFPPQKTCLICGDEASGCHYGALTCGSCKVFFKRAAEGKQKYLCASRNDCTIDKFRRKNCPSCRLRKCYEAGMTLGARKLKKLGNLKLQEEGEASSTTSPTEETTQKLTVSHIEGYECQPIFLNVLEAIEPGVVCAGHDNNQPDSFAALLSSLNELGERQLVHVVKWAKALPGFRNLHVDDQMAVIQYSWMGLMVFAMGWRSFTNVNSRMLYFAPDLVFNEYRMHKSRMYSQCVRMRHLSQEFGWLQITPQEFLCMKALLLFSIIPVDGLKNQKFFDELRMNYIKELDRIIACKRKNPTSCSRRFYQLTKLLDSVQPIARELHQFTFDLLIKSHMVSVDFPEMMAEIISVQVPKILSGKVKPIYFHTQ
Test: Functional response (transactivation) test in HALP2 cells (HeLa stably expressing hAR and ARE-luciferase reporter)
Format: cell-based
Conditions: agonism: concentration inducing 50% of the maximum agonistic effect of the tested compound; HALP2 cells, 24 hours; read-out: EC50

{"compound": "CN1C(=O)N(c2ccc(Cl)c(Cl)c2)C(=O)C1(CO)c1ccccc1 (centres unmarked)", "EC50": "101 to 500 nM"}
{"compound": "CN1C(=O)N(c2ccc(C#N)c(C(F)(F)F)c2)C(=O)C1(CO)c1ccc(Cl)cc1 (centres unmarked)", "EC50": "101 to 500 nM"}
{"compound": "CN1C(=O)N(c2ccc(C#N)c(C(F)(F)F)c2)C(=O)C1(CO)c1ccc(F)cc1 (centres unmarked)", "EC50": "11 to 100 nM"}
{"compound": "CCN1C(=O)N(c2ccc(C#N)c(C(F)(F)F)c2)C(=O)C1(CO)c1ccccc1 (centres unmarked)", "EC50": "0.01 to 10 nM"}
{"compound": "CN1C(=O)N(c2ccc(C#N)c(C(F)(F)F)c2)C(=O)C1(COP(=O)(O)O)c1ccccc1 (centres unmarked)", "EC50": "0.01 to 10 nM"}
{"compound": "CN1C(=O)N(c2ccc(C#N)c(C(F)(F)F)c2)C(=O)C1(CO)c1ccccc1 (centres unmarked)", "EC50": "0.01 to 10 nM"}
{"compound": "CN1C(=O)N(c2ccc(C#N)c(C(F)(F)F)c2)C(=O)C1(CO)c1cccc(C#N)c1 (centres unmarked)", "EC50": "101 to 500 nM"}
{"compound": "CN1C(=O)N(c2ccc(C#N)c(C(F)(F)F)c2)C(=O)C1(CO)c1cccc(Cl)c1 (centres unmarked)", "EC50": "0.01 to 10 nM"}
{"compound": "CN1C(=O)N(c2ccc(C#N)c(C(F)(F)F)c2)C(=O)C1(CO)c1cccc(C(F)(F)F)c1 (centres unmarked)", "EC50": "101 to 500 nM"}
{"compound": "C#CCN1C(=O)N(c2ccc(C#N)c(C(F)(F)F)c2)C(=O)C1(CO)c1ccccc1 (centres unmarked)", "EC50": "101 to 500 nM"}
{"compound": "CN1C(=O)N(c2ccc(C#N)c(C(F)(F)F)c2)C(=O)[C@@]1(CO)c1ccccc1", "EC50": "11 to 100 nM"}
{"compound": "N#CCN1C(=O)N(c2ccc(C#N)c(C(F)(F)F)c2)C(=O)C1(CO)c1ccccc1 (centres unmarked)", "EC50": "501 to 1000 nM"}
{"compound": "CC(C)N1C(=O)N(c2ccc(C#N)c(C(F)(F)F)c2)C(=O)C1(CO)c1ccccc1 (centres unmarked)", "EC50": "101 to 500 nM"}
{"compound": "Cc1cccc(C2(CO)C(=O)N(c3ccc(C#N)c(C(F)(F)F)c3)C(=O)N2C)c1 (centres unmarked)", "EC50": "501 to 1000 nM"}
